# target system: T1, human IgEλ (U266 derived) (human, UniProt P01854-1 1-428)
# T1 construct: Whole IgE purified from U266 cells (Ikeyama et al. 1986); labelled with europium cryptate or biotin in some assays; also called human IgE (U266-derived); human IgE lambda
# T1 sequence (P01854 other isoform, or with tags, fused parts or gaps): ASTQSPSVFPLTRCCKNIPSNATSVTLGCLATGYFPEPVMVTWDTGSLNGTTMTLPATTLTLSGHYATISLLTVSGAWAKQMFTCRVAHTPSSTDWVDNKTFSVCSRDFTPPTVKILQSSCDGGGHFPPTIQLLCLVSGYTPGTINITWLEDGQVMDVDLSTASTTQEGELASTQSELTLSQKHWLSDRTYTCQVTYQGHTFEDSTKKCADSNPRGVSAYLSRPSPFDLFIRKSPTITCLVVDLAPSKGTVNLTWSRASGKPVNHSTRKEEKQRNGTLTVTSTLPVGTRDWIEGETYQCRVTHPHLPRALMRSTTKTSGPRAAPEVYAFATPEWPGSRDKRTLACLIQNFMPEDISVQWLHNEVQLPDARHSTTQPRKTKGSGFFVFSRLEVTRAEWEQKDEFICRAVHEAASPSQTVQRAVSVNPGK
# assay method text: SPR (BIAcore 2000): IgG captured on protein G', IgE as analyte, bivalent analyte model; geomean
pKd: −log10 of the molar value.
reported endpoint: pKd

[
  {
    "binder": "Antibody 4 IgG (antibody, V domains shown, Whole human IgG (section 1.4: IgG1)) VH: QVQLVQSGAEVKKPGATVKLSCKVYGYIFTDYNIYWVRQAPGKGLEWMGLIDPDNGETFYAEKFQGRATMTADTSSDRAYMELTSLTFEDTATYYCATVMGKWIKGGYDYWGRGTLVTVSS VL: QSVLTQPPSVSGAPGQRVTISCTGSSSNIGAGYDVHWYQQLPGTAPKLLIYDNFNRPSGVPDRFSGSKSGTSASLAIIGLQTEDEADYYCQSYDSRGGHSPFGTGTKLTVL",
    "result value": 8.68
  },
  {
    "binder": "Antibody 8 IgG (antibody, V domains shown, Whole human IgG (section 1.4: IgG1)) VH: QVQLVQSGAEVKKPGATVKLSCKVYGYIFTDYNIYWVRQAPGKGLEWMGLIDPDNGETFYAEKFQGRATMTADTSSDRAYMELTSLTFEDTATYYCATVLGRWIKGGYDYWGRGTLVTVSS VL: QSVLTQPPSVSGAPGQRVTISCTGSSSNIGAGYDVHWYQQLPGTAPKLLIYDNFNRPSGVPDRFSGSKSGTSASLAIIGLQTEDEADYYCQSYDSPTHTSPFGTGTKLTVL",
    "result value": 8.59
  },
  {
    "binder": "Antibody 28 IgG (antibody, V domains shown, Whole human IgG (section 1.4: IgG1)) VH: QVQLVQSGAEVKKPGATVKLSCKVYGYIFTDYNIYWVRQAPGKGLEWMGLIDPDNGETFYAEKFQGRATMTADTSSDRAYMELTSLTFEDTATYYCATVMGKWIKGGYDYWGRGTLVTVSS VL: QSVLTQPPSVSGAPGQRVTISCTGSSSNIGAGYDVHWYQQLPGTAPKLLIYDNFNRPSGVPDRFSGSKSGTSASLAIIGLQTEDEADYYCQSYDSSSLHSPFGTGTKLTVL",
    "result value": 8.49
  }
]
